B1: glmS ribozyme (parent)
chain: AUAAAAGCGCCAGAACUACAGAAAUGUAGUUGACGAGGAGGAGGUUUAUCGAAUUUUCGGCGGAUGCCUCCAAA

Variants of: B1
Test Details: self-cleavage kobs at 2500 uM GlcN6P; higher = faster cleavage; RNA array
Protocol Conditions: with glucosamine-6-phosphate
Fewer inactive variants are shown than the library holds.
Measurement Name: self-cleavage kobs at 2500 uM GlcN6P

Below, each entry is followed by its recorded self-cleavage kobs at 2500 uM GlcN6P result.
1. U31A C34A C71U = < 1e-05 s⁻¹
2. G7A G13A U30C C34U C70U = < 1e-05 s⁻¹
3. A12C G44C U65C = < 1e-05 s⁻¹
4. U57C C61U G63A = < 1e-05 s⁻¹
5. G13C C67U = 4.34e-05 s⁻¹
6. U49G A53C = 0.000369 s⁻¹

Task: // query self-cleavage kobs at 2500 uM GlcN6P value for entry C11G A33U
Result: < 1e-05 s⁻¹

Task: So what's the measured self-cleavage kobs at 2500 uM GlcN6P for this one? A12C G66U
Result: 0.000865 s⁻¹

Task: Quick one: self-cleavage kobs at 2500 uM GlcN6P for G37A C70U ?
Result: 0.0018 s⁻¹

Task: Looking for the measured self-cleavage kobs at 2500 uM GlcN6P of G40A U47C C58U , can you help?
Result: < 1e-05 s⁻¹

Task: Quick check: self-cleavage kobs at 2500 uM GlcN6P of G41A C71U ?
Result: 0.000414 s⁻¹

Task: Look up self-cleavage kobs at 2500 uM GlcN6P: C8G C10A
Result: < 1e-05 s⁻¹

Task: Which self-cleavage kobs at 2500 uM GlcN6P value belongs to C8G C67U ?
Result: < 1e-05 s⁻¹

Task: Need self-cleavage kobs at 2500 uM GlcN6P of U30A A53U , thanks.
Result: 0.00272 s⁻¹

Task: Value lookup for self-cleavage kobs at 2500 uM GlcN6P; key = C19A C34A
Result: < 1e-05 s⁻¹

Task: // lookup self-cleavage kobs at 2500 uM GlcN6P for G29A A36G C58A
Result: < 1e-05 s⁻¹

Task: Quick one: self-cleavage kobs at 2500 uM GlcN6P of U30G G41C C58U ?
Result: < 1e-05 s⁻¹

Task: I have this variant here, G13C C16A , and I need its recorded self-cleavage kobs at 2500 uM GlcN6P.
Result: 7.81e-05 s⁻¹

Task: Give its self-cleavage kobs at 2500 uM GlcN6P value. Item: G13A U31G
Result: 6.35e-05 s⁻¹

Task: Fill in the blank: the reported self-cleavage kobs at 2500 uM GlcN6P of G9U A36G A42U G44U is ____.
Result: < 1e-05 s⁻¹
